// provenance: patent US20210087281A1

TESTED_SYSTEM: T1, mouse MET ECD (mouse, UniProt P16056 25-931)
T1 construct: range 1-931; recombinant ECD made by the applicants; the stated range begins at residue 1; also called mMET; mMET ECD
T1 sequence (P16056 25-931 limits assumed, form in doubt): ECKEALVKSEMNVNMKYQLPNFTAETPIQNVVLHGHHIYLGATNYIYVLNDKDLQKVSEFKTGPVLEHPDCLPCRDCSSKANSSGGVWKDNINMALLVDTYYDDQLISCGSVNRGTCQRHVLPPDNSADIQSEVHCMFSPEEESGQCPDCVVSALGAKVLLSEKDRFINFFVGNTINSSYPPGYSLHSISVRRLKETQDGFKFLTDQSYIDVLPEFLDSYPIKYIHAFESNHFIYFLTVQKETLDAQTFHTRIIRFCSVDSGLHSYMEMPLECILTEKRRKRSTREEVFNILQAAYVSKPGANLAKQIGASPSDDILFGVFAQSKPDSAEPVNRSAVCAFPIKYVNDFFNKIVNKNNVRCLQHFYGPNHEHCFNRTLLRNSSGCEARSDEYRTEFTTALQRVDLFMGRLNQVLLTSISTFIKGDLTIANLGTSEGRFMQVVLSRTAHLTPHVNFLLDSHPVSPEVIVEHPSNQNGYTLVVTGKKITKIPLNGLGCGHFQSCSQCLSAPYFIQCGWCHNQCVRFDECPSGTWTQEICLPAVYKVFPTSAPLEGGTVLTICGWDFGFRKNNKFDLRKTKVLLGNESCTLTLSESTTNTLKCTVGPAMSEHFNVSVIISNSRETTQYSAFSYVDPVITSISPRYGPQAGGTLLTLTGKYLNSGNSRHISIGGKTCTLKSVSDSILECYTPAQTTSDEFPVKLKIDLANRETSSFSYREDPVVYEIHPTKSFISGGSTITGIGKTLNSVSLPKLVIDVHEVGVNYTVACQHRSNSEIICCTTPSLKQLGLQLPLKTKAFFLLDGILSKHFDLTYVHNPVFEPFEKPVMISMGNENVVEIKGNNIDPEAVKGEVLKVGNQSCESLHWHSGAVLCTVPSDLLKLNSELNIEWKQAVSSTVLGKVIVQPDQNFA
ASSAY_COMMENT: SPR, MET ECD on chip, crude periplasmic Fab
ASSAY_METRIC: koff (s⁻¹)
Note: unit s⁻¹ is implicit; provide only the numeric part.

Answered examples (5):
76G7 Fab (Fab, V domains shown, llama Fab (VH-CH1 and lambda VL-CL) with MYC flag, crude periplasmic extract) VH: QVQLVESGGNLVQPGGSLRLSCAASGFTFSNYYMSWVRQAPGKGLEWVSDIYSDGSTTWYSDSVKGRFTISRDNAKNTLSLQMNSLKSEDTAVYYCARVKIYPGGYDAWGQGTQVTVSS VL: QAGLTQPPSVSGSPGKTVTISCAGNSSDVGYGNYVSWYQQFPGMAPKLLIYLVNKRASGITDRFSGSKSGNTASLTISGLQSEDEADYYCASYTGSNNIVFGGGTHLTVL : 0.00407
71C3 Fab (Fab, V domains shown, llama Fab (VH-CH1 and lambda VL-CL) with MYC flag, crude periplasmic extract) VH: QLQLVESGGGLVQPGGSLRLSCAASGFTFSSHAMSWVRQAPGKGLEWVSAINSGGGSTSYADSVKGRFTISRDNAKNTLYLQMNSLKPEDTAVYYCAKELRFDLARYTDYEAWDYWGQGTQVTVSS VL: SYELTQPSALSVTLGQTAKITCQGGSLGSSYAHWYQQKPGQAPVLVIYDDDSRPSGIPERFSGSSSGGTATLTISGAQAEDEGDYYCQSADSSGNAAVFGGGTHLTVL : 0.00258
74C8 Fab (Fab, V domains shown, llama Fab (VH-CH1 and lambda VL-CL) with MYC flag, crude periplasmic extract) VH: EVQLVESGGGLVQPGGSLRLSCAASGFTFRNYHMSWVRQVPGKGFEWISDINSAGGSTYYADSVKGRFTISRDNAKNTLYLEMNSLKPEDTALYYCARVNVWGVNYWGKGTLVSVSS VL: QTVVTQEPSLSVSPGGTVTLTCGLSSGSVTTSNYPGWFQQTPGQAPRTLIYNTNSRHSGVPSRFSGSISGNKAALTITGAQPEDEADYYCSLYPGSYTNVFGGGTHLTVL : 0.0037
71G2 Fab (Fab, V domains shown, llama Fab (VH-CH1 and lambda VL-CL) with MYC flag, crude periplasmic extract) VH: EVQLQESGGGLVQPGGSLRLSCAASGFTFSIYDMSWVRQAPGKGLEWVSTINSDGSSTSYVDSVKGRFTISRDNAKNTLYLQMNSLKPEDTAVYYCAKVYGSTWDVGPMGYGMDYWGKGTLVTVSS VL: SSALTQPSALSVSLGQTARITCQGGSLGSSYAHWYQQKPGQAPVLVIYGDDSRPSGIPERFSGSSSGGTATLTISGAQAEDEDDYYCQSTDSSGNTVFGGGTRLTVL : 0.00148
76H10 Fab (Fab, V domains shown, llama Fab (VH-CH1 and lambda VL-CL) with MYC flag, crude periplasmic extract) VH: QLQLVESGGGLVQPGGSLRVSCTASGFTFNTYYMTWVRQAPGKGLEWVSDINSGGGTYYADSVKGRFTISRDNAKNTLYLQMNSLKPEDTALYYCVRVRIWPVGYDYWGQGTQVTVSS VL: QAVVTQEPSLSVSPGGTVTLTCGLSSGSVTTSNYPGWFQQTPGQAPRTLIYNTNNRHSGVPSRFSGSISGNKAALTITGAQPEDEADYYCSLYTGSYTTVFGGGTHLTVL : 0.00544

# input Let me know recorded koff for 71D4 Fab (Fab, V domains shown, llama Fab (VH-CH1 and lambda VL-CL) with MYC flag, crude periplasmic extract) VH: ELQLVESGGGLVQPGGSLRLSCAASGFTFSGYGMSWVRQAPGKGLEWVSDINSGGGSTSYADSVKGRFTISRDNAKNTLYLQMNSLKPEDTAVYYCAKDMRLYLARYNDYEAWDYWGQGTQVTVSS VL: SSALTQPSALSVTLGQTAKITCQGGSLGSSYAHWYQQKPGQAPVLVIYDDDSRPSGIPERFSGSSSGGTATLTISGAQAEDEGDYYCQSADSSGNAAVFGGGTHLTVL , thanks.
# output 0.00238
